target: T1, human CCR8 (human, UniProt P51685 1-355); assay: FACS, competition with AF647-human CCL1 on CHO-K1-human CCR8 cells
T1 construct: whole, on cells; also called hCCR8
T1 sequence (P51685 whole entry): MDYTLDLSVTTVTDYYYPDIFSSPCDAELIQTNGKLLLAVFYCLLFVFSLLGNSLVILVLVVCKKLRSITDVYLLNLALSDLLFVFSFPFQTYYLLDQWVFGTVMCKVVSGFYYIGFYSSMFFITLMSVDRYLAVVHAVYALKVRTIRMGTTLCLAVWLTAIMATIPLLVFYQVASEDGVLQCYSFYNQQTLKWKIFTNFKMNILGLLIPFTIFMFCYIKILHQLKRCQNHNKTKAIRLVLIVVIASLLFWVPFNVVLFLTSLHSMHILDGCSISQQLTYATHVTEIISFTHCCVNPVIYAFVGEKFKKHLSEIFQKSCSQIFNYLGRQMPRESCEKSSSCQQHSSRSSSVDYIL
Parameter: Max Inhibition (%)
Just the number please, in %, no unit attached.

QUERY: Could you tell me which Max Inhibition (%) is on file for Hu149-4 (antibody, human IgG1, V domains shown, humanized, human IgG1; also called Hu149-4 HuIgG1) VH: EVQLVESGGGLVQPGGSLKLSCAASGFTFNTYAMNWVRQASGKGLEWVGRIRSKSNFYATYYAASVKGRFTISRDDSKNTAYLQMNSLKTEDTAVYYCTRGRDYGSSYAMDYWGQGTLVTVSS VL: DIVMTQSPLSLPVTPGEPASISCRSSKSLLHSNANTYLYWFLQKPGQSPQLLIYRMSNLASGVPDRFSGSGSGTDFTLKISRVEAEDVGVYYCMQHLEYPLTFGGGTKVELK ?
RESULT: 99.5

---
QUERY: Could you tell me which Max Inhibition (%) is on file for Hu149-3 (antibody, V domains shown, humanized IgG) VH: EVQLVESGGGLVQPGGSLKLSCAASGFTFNTYAMNWVRQASGKGLEWVGRIRSKSNFYATAYAASVKGRFTISRDDSKNTAYLQMNSLKTEDTAVYYCVRGRDYGSSYAMDYWGQGTLVTVSS VL: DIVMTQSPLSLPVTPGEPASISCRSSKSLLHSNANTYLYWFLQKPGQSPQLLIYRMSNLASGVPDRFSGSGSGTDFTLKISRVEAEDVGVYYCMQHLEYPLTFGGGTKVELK ?
RESULT: 99.2

QUERY: Could you tell me which Max Inhibition (%) is on file for Hu149-1 (antibody, V domains shown, humanized IgG, detected with anti-human IgG) VH: EVQLVESGGGLVQPGGSLKLSCAASGFTFNTYAMNWVRQASGKGLEWVGRIRSKSNFYATYYAASVKGRFTISRDDSKNTAYLQMNSLKTEDTAVYYCVRGRDYGSSYAMDYWGQGTLVTVSS VL: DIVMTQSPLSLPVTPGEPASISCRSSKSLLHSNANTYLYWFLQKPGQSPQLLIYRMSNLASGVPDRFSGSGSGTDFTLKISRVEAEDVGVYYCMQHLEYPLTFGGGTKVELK ?
RESULT: 99.2

The values you see were collected from patent US20250034266A1.
